system: HS 578T breast; assay: NCI-60 one-dose screen, 48 h (100 = growth as untreated, 0 = no growth, -100 = all killed); conditions: 10 µM unless noted
This is part of a sample that, as a whole, favours compounds with a hit. Of some 83,000 tested, about 20% had one in any assay. Active and inactive are the calls of the source. How the source made its calls: active means growth percent below 10; inactive means the rest.
assay readout: growth

| compound | assay readout | test value |
| --- | --- | --- |
| COc1ccc(/C=C/C(=O)c2ccc([N+](=O)[O-])cc2)cc1 | growth | 106% (inactive) |
| CCCCC[C@H]1CC=C2C(=O)C=C[C@@H]2CC=CCCCC(=O)O[C@@H](CCCCC)CC=C2C(=O)C=C[C@@H]2CC=CCCCC(=O)O[C@@H](CCCCC)CC=C2C(=O)C=C[C@@H]2CC=CCCCC(=O)O1 | growth | 40.2% [8.75 µM] (inactive) |
| O=C1C(=O)N(CCCCn2cc(-c3ccccc3)nn2)c2ccccc21 | growth | 99.1% (inactive) |
| Cc1cc(C)nc(NC(N)=NCCc2ccccc2)n1 | growth | 45.3% (inactive) |
| Cc1cc(N2CCCC2)nc(N(CCNc2ccnc3cc(Cl)ccc23)Cc2ccco2)n1 | growth | 62.1% (inactive) |
| O=C1CCC/C=C\C[C@H]2C=C(Cl)C(=O)/C2=C/C[C@H](CCCCC(F)(F)F)OC(=O)CCC/C=C\C[C@H]2C=C(Cl)C(=O)/C2=C/C[C@H](CCCCC(F)(F)F)O1 | growth | 21.8% [7.5 µM] (inactive) |
| COc1ccc2c(c1)C/C(=C\c1cc(-c3ccc4c(c3)OCO4)n[nH]1)C2=O | growth | 99.4% (inactive) |
| Fc1ccc(Nc2ccc3c(OCCCN4CCOCC4)cccc3n2)cc1F | growth | 67.5% (inactive) |
| COc1ccc(C(=O)c2ccc(C)cc2)c(OC)c1OC | growth | 86.9% (inactive) |
| Cn1cc(-c2nc(-c3c[nH]c4ncccc34)cs2)c2cc(Br)ccc21 | growth | 98% (inactive) |
| Cc1csc(-c2ccc3c(c2)COC3(CCCN(C)C)c2ccc(F)cc2)c1 (stereo not drawn) | growth | 47.7% (inactive) |
| CCCCCCCC(=O)SCC/C=C/[C@@H]1CC(=O)NCc2cccc(n2)CN(Cc2ccc3ccccc3c2)CC(=O)N[C@@H](C(C)C)C(=O)O1 | growth | 34.9% (inactive) |
| Cn1cc(-c2csc(-c3c[nH]c4ccc(F)cc34)n2)c2cccnc21 | growth | 76.1% (inactive) |
| CC(=O)O[C@H]1CC[C@@]2(C)C(=CC[C@@H]3[C@@H]2CC[C@]2(C)C(=O)N(O)C(=O)C[C@@H]32)C1 | growth | 106% (inactive) |
| Cc1cc(N2CCCCC2)nc(N(CCNc2ccnc3cc(Cl)ccc23)Cc2ccco2)n1 | growth | 51.4% (inactive) |
| CC/C=C\C[C@H]1CC=C2C(=O)C=C[C@@H]2CC=CCCCC(=O)O[C@@H](CCCCC)CC=C2C(=O)C=C[C@@H]2CC=CCCCC(=O)O[C@@H](CCCCC)CC=C2C(=O)C=C[C@@H]2CC=CCCCC(=O)O[C@@H](CCCCC)CC=C2C(=O)C=C[C@@H]2CC=CCCCC(=O)O1 | growth | 41.9% [7.9 µM] (inactive) |
| CCOC(=O)C/C(=C\c1ccccc1)C(C)=O | growth | 108% (inactive) |
| CC1(C)C(=O)/C(=C\c2ccccn2)C[C@]2(C)[C@H]3CC[C@@H]4[C@@H](C(=O)/C=C/c5ccccn5)CC[C@@]4(C)[C@]3(C)CC[C@@H]12 | growth | 15.1% (inactive) |

----------
tested on: NCI-H23 lung; assay: NCI-60 one-dose screen, 48 h; conditions: 10 µM unless noted
Compounds without any hit were thinned out: in the full panel of roughly 83,000, 20% have a hit. Active and inactive are the calls of the source. How the source made its calls: active means growth percent below 10; inactive means the rest.
Labels: yes = active, no = inactive

| compound | class assignment |
| --- | --- |
| O=C(NO)c1ccc(Cn2c(=O)n(-c3ccccc3)c(=O)c3ccccc32)cc1 | yes |
| CC1(C)C=CC[C@]2(C)[C@H]3CC[C@@H]4[C@H]5[C@H](C(=O)/C=C/c6cccnc6)CC[C@]5(CO)CC[C@@]4(C)[C@]3(C)CC[C@@H]12 | yes |
| COCCNC1=C(Cl)C(=O)c2ccccc2C1=O | no |
| CC(C)c1cc(C(=O)O)c(O)c(C(C)C)c1.CC(C)c1cc(C(=O)O)c(O)c(C(C)C)c1.[Mn] | no |
| COc1ccc(O)c(-c2cc(-c3ccc(Cl)cc3)c(C#N)c(=O)[nH]2)c1 | no |
| c1csc(-c2nc(-c3cc4ccccc4c(N4CCOCC4)n3)cs2)c1 | no |
| COc1ccc(-c2cc(-c3c(C)oc4cc5occc5c(OC)c4c3=O)nc(N)c2C#N)cc1OC | no |
| COc1cc2c(cc1-c1c(C)noc1C)ncc1nc(C3CCC(F)(F)CC3)n([C@@H](C)COC(F)F)c12 | no |
| C=C(C)[C@@H]1CC[C@]2(C)[C@H](CC[C@@H]3[C@H]4[C@H]5OC[C@@]4(CCC5(C)C)CC[C@]32C)[C@@]1(C)CCCN | no |
| Clc1cc(Cl)cc(Nc2ccc3c(OCCCN4CCOCC4)cccc3n2)c1 | no |
| Cn1c2c(Cl)c(Cl)ccc2c2c(C#N)c[nH]c(=O)c21 | no |
| CC1(n2nnnc2N2CCCN(c3ncccc3N)CC2)CCC1 | no |
| O=C(NC1=CC(=O)c2ccccc2C1=O)c1ccccc1 | no |
| COc1cc(/C=C/c2cc(/C=C/c3ccc(O)c(OC)c3)n(-c3ccc(Cl)cc3)c(=O)n2)ccc1O | no |
| Cc1cccc2c1NC(=O)[C@@]21[C@H](C(=O)c2ccccc2)[C@]2(C(=O)Nc3ccccc32)[C@H]2CCCN21 | no |
| Cc1cc(C=O)c(C)c2c1[nH]c1ccccc12 | no |
| CCc1nnc(NC(=O)c2ccoc2COc2ccccc2)s1 | no |
| COc1ccc(C2CC(=O)c3c(nc4ccc(Cl)cc4c3N)C2)cc1 (centres undefined) | no |
| Cn1cc(-c2csc(-c3cn(CCCN4CCCCC4)c4ccc(Br)cc34)n2)c2cccnc21 | no |
| COc1c(N)c2c(c([N+](=O)[O-])c1OC)C(=O)OC2 | no |
| O=c1c(CNc2ccc(S(=O)(=O)Nc3nccs3)cc2)coc2ccccc12 | no |
| COc1ccc(C(=O)c2cc(OC)c(OC)c(OC)c2)cc1/C=C/C(=O)c1cc(OC)c(OC)c(OC)c1 | no |
| COc1cccc(NC(=O)c2sc3nc4c(cc3c2N)C(=O)CCC4)c1 | no |
| c1ccc2c(-c3nc(-c4c[nH]c5ncccc45)cs3)c[nH]c2c1 | no |
| COc1cc(-c2nc(-c3ccccc3)c(-c3ccccc3)[nH]2)cc(OC)c1O | yes |
| COc1cc(/C=C2\C(=O)N(CC(O)COc3cc(O)c4c(=O)cc(-c5ccccc5)oc4c3)c3ccccc32)cc(OC)c1O (centres undefined) | no |
| COC(=O)[C@]12CC[C@@H](C)[C@H](C)[C@@H]1C1=CC(=O)[C@@H]3[C@@]4(C)C[C@@H](OC(C)=O)[C@H](OC(C)=O)[C@@](C)(COC(C)=O)[C@@H]4C(=O)C[C@@]3(C)[C@]1(C)CC2 | no |
| Cc1cc(N(CCCNc2ccnc3cc(Cl)ccc23)Cc2ccco2)nc(N2CCOCC2)n1 | no |
| CC1(C)c2ccccc2C(=O)C1(Br)Cc1ccccc1 (centres undefined) | no |

----------
tested on: HOP-62 NSCLC; assay: NCI-60 one-dose screen, 48 h; conditions: 10 µM unless noted
The panel holds about 83,000 compounds, 20% with a hit somewhere; the sample as a whole holds those more often. The source made the active and inactive calls. Rule for the calls: active = growth percent below 10; inactive = the rest.
Labels: active, inactive

| structure smiles string | class assignment |
| --- | --- |
| CCOC(=O)C/C(=C\c1ccccc1)C(C)=O | inactive |
| O=C1CCC/C=C\C[C@H]2C=C(Cl)C(=O)/C2=C/C[C@H](CCCCC(F)(F)F)OC(=O)CCC/C=C\C[C@H]2C=C(Cl)C(=O)/C2=C/C[C@H](CCCCC(F)(F)F)O1 | active |
| COc1cc(/C=C/c2cc(/C=C/c3ccc(O)c(OC)c3)n(-c3ccc(Cl)cc3)c(=O)n2)ccc1O | inactive |

----------
test system: SR leukemia; experiment: NCI-60 one-dose screen, 48 h (100 = growth as untreated, 0 = no growth, -100 = all killed); conditions: 10 µM unless noted
About 83,000 compounds went through this panel and 20% of them were active in at least one assay; those are over-represented in the sample as a whole. Activity calls are given as the source filed them. Rule for the calls: active = growth percent below 10; inactive = the rest.

| molecule | growth |
| --- | --- |
| COc1cc(-c2nc(-c3ccccc3)c(-c3ccccc3)[nH]2)cc(OC)c1O | 4.48% (active) |
| O=C(c1ccccc1)C(CN1CCOCC1)c1ccccc1 (stereo not given) | -0.205% (active) |
| CC/C(=N/NC(N)=O)c1ccccc1 | 110% (inactive) |
| N#CC1C(=N)Cc2ccccc2-c2ccccc21 (stereo not given) | 26.7% (inactive) |
| Cn1c2c(Cl)c(Cl)ccc2c2c(C#N)c[nH]c(=O)c21 | 112% (inactive) |
| Cc1ccc(C)c2c1CCC2C(C)C (stereo not given) | 89.3% (inactive) |
| c1ccc(-c2nc(Nc3ccc(-c4nc5ccccc5[nH]4)cc3)nc(N3CCOCC3)n2)cc1 | 8.94% (active) |
| COc1cccc(-c2nn(-c3ccccc3)cc2-c2ccnc(NCCCO)c2)c1 | 5.71% (active) |
| COc1cc(-c2cc3ncccc3c3nc(OCCN(C)C)c4cccnc4c23)cc(OC)c1OC | 8.77% (active) |
| Nc1ccc(Br)cn1 | 98.9% (inactive) |
| COc1ccc(C(=O)c2cc(OC)c(OC)c(OC)c2)cc1/C=C/C(=O)c1cc(OC)c(OC)c(OC)c1 | 43.2% (inactive) |
| COc1ccc(C2CC(=O)c3c(nc4ccc(Cl)cc4c3N)C2)cc1 (stereo not given) | 88.7% (inactive) |
| C#Cc1cccc(NC(=O)C2CCCN(C(=O)CCl)C2)c1 (stereo not given) | 10.9% [8.25 µM] (inactive) |
| CCOC(=O)C/C(=C\c1ccccc1)C(C)=O | 96.7% (inactive) |
| CC1(C)CC[C@]2(C(=O)Nc3ccccn3)CC[C@]3(C)C(=CC[C@@H]4[C@@]5(C)C/C(=C/c6ccncc6)C(=O)C(C)(C)[C@@H]5CC[C@]43C)[C@@H]2C1 | 8.26% (active) |
| Cc1cc(C)nc(NC(N)=NCCc2ccccc2)n1 | 19.2% (inactive) |
| C=COCCCCCCCCCCCCCCCCCC | 94.6% (inactive) |
| NCCn1cc(-c2nc(-c3c[nH]c4ncccc34)cs2)c2cc(Br)ccc21 | 15.2% (inactive) |
| CC(=O)NC1=C(C#N)C(c2ccccc2Cl)c2c(ccc3ccccc23)O1 (stereo not given) | 37.1% (inactive) |
| COc1ccc(/C=C(\C#N)c2cc3ccccc3n2C(C)=O)cc1 | 47.3% (inactive) |
| COc1ccc(O)c(-c2cc(-c3ccc(Cl)cc3)c(C#N)c(=O)[nH]2)c1 | 33.5% (inactive) |
| O=C1NC(=Nc2ccc(S(=O)(=O)Nc3nccs3)cc2)S/C1=C\c1coc2ccccc2c1=O | 88.9% (inactive) |
| Cc1cc(Cl)nc(N(CCNc2ccnc3cc(Cl)ccc23)Cc2ccco2)n1 | -3.12% (active) |
| O=S(=O)(NCCNc1cc(-c2cn(-c3ccccc3)nc2-c2cccc(O)c2)ccn1)c1ccc(F)cc1 | -5.97% (active) |
| COc1cc(C(=O)/C=C/c2cc(-c3ccc4c(c3)OCO4)n[nH]2)cc(OC)c1OC | -25.3% (active) |
| COc1cc2nc(Cl)nc(Nc3cccc(C(=O)/C=C/c4ccccc4)c3)c2cc1OC | 8.85% (active) |
| COc1cnc2c(c1)C(=O)c1c-2n(CCCNC(C)C)c(=O)c2cc([N+](=O)[O-])ccc12 | -7.62% (active) |
| C=C(C)[C@@H]1CC[C@]2(C)[C@H](CC=C3[C@@H]4CC(C)(C)CC[C@]4(C(=O)OC)CC[C@]32C)[C@@]1(C)CC/C(N)=N/O | 0.151% (active) |
| Clc1ccccc1-c1nc(Nc2nc3ccccc3s2)nc(C(Cl)(Cl)Cl)n1 | 79.6% (inactive) |
| Cc1csc(Nc2nc(-c3cccc(Br)c3)nc(C(Cl)(Cl)Cl)n2)n1 | 67.7% (inactive) |
